Experiment: Pilot toxicokinetic dose range-finding study in cannulated rat model
Format: in vivo, Sprague-Dawley rats
Settings: female, Sprague-Dawley, iv; rat plasma, 20 mg/kg epothilone D equivalent, fast bolus jugular vein

- smilesCode: "C/C1=C/C[C@@H](/C(C)=C/c2csc(C)n2)OC(=O)C[C@H](O)C(C)(C)C(=O)[C@H](C)[C@@H](O)[C@@H](C)CCC1"
  clearance: "40.2 mL/min/kg"

###

Test: Pilot toxicokinetic dose range-finding study in cannulated rat model
Format: in vivo, Sprague-Dawley rats
Conditions: female, Sprague-Dawley, iv; terminal, rat plasma, 20 mg/kg epothilone D equivalent, fast bolus jugular vein
Procedure: The lead hydroxamic acid and cysteine containing formulations were compared to free epothilone D using a cannulated rat model by administering a 10 mg/kg dose by fast bolus to the jugular vein catheter. Female, Sprague-Dawley rats surgically modified with jugular vein catheters exteriorized posteriorly were purchased from Harlan Labs. […] Animals were maintained and evaluated under pathogen-free conditions in accordance with USF College of Medicine IACUC standards of care. […]
measureName: half-life (min)

- smilesCode: "C/C1=C/C[C@@H](/C(C)=C/c2csc(C)n2)OC(=O)C[C@H](O)C(C)(C)C(=O)[C@H](C)[C@@H](O)[C@@H](C)CCC1"
  measuredNumber: 18

###

Test: Pilot toxicokinetic dose range-finding study in cannulated rat model
Assay type: in vivo, Sprague-Dawley rats
Details: female, Sprague-Dawley, iv; rat plasma, 20 mg/kg epothilone D equivalent, fast bolus jugular vein
measureName: Cmax (µg/mL)

- smilesCode: "C/C1=C/C[C@@H](/C(C)=C/c2csc(C)n2)OC(=O)C[C@H](O)C(C)(C)C(=O)[C@H](C)[C@@H](O)[C@@H](C)CCC1"
  measureName: "Cmax"
  resultUnits: "µg/mL"
  measuredNumber: 32.2

Origin of the recorded values: paper PMC5156807
